# assay_method_text: antimalarial activity against Dd2 strain (AID 2302);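 note: 0% = DMSO untreated growth and 100% = chloroquine plus artemisinin killed control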
# experimental_setup: P. falciparum Dd2 in RBCs, LDH growth readout, 72 h; at 2 µM
Activity calls are given as the source filed them.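 Rule for the calls: active = growth inhibition above 50% at the single 2 µM test dose, taken to imply half-maximal potency below 2 µM; inactive = the rest.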
Pick from active, inactive when you respond.

{"smiles_text": "Cc1[nH]c(C)c(-c2ccc(Oc3ccc(Cl)cc3)cc2)c(=O)c1I", "class": "inactive"}
{"smiles_text": "O=C(Nc1ccc(-c2nc3ccccc3[nH]2)cc1)c1ccc(N2CCCC2)c([N+](=O)[O-])c1", "class": "active"}
{"smiles_text": "CC(C)c1cccc(OCC2CCN(c3ccc(C(=O)Nc4ccccc4)cn3)CC2)c1", "class": "active"}
{"smiles_text": "N#Cc1cccc(CN2CCCN(Cc3cccc(C(=O)Nc4ccc(Cl)cc4)c3)CC2)c1", "class": "inactive"}
{"smiles_text": "CC(=O)N(C)c1ccc(C(=O)Nc2cccc(-c3cccc(-c4nc5ccc(C(F)(F)F)cc5[nH]4)c3)c2)cc1", "class": "inactive"}

Exercise: How did this test come out for `CC(C)Cn1c(N)cc(=O)n(C)c1=O` ?
Key: inactive

Exercise: Could you kindly confirm the outcome this assay logged for `CN(C)Cc1ccc(-c2cc3c(Nc4ccc(OCc5cccc(F)c5)c(Cl)c4)ncnc3s2)[nH]1` ?
Key: active

Exercise: Outcome logged for `Cn1nc(C(F)(F)F)c(-c2ccc(Br)cc2)c1NC(=O)Cc1ccccc1F` in this assay:
Key: active

Exercise: Hi, sorry to bother you, what did the test record for `Cc1ccc2[nH]c(-c3ccccc3N)cc2c1` ?
Key: inactive

Exercise: # outcome recorded in this test, key = `FC(F)(F)c1cccc(NC(=S)NN=Cc2ccccn2)c1`
Key: active

====

# Tested on: F380Y/beta4
# assay_method_text: modulators of BK channel variants, profiling panel, selectivity assay, cell-based, U2OS BacMam, thallium flux, beta subunits (AID 1259406);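 note: initial slope of Thallos dye fluorescence rise after thallium is added; log ratio against the mean of 0.3% DMSO vehicle wells on the same plate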
# experimental_setup: at 30 µM
Active and inactive are the calls of the source.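 How the source made its calls: active means thallium flux through the channel raised or lowered by more than 3 SD from vehicle-only wells, actives on both sides; inactive means the rest.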
In this section we review reported log fold change Tl+ flux values for a set of compounds.

{"compound": "Cn1ncc2ccccc2c1=O", "log fold change Tl+ flux": "0.0126 (inactive)"}
{"compound": "Cc1ccc(C(C)NC(=O)c2ccc(Cl)c(Cl)c2)c(C)c1 (stereo not given)", "log fold change Tl+ flux": "-5.9e-05 (inactive)"}
{"compound": "Cc1ncc(CSc2nc(C(C)(C)C)cs2)c(CO)c1O", "log fold change Tl+ flux": "-0.0366 (inactive)"}
{"compound": "Cc1ccc(S(=O)(=O)N2Cc3ccccc3C(C)CC23CCCCC3)cc1 (stereo not given)", "log fold change Tl+ flux": "-0.175 (active)"}
{"compound": "CNC(=O)Oc1ccc2c(c1)[C@]1(C)CCN(C)C1N2C (stereo not given in full)", "log fold change Tl+ flux": "0.000651 (inactive)"}
{"compound": "CO[C@H]1/C=C/O[C@@]2(C)Oc3c(C)c(O)c4c(O)c(c(C=NN5CCN(C)CC5)c(O)c4c3C2=O)NC(=O)/C(C)=C\\C=C\\[C@H](C)[C@H](O)[C@@H](C)[C@@H](O)[C@@H](C)[C@H](OC(C)=O)[C@@H]1C", "log fold change Tl+ flux": "0.0159 (inactive)"}
{"compound": "Cc1ccc(S(C)(=O)=NC(=O)c2ccc(-c3cc(C(F)(F)F)nn3C)s2)cc1 (stereo not given)", "log fold change Tl+ flux": "0.0284 (inactive)"}
{"compound": "Cc1ccccc1C=C1N=C(c2ccccc2)OC1=O", "log fold change Tl+ flux": "-0.0336 (inactive)"}

Exercise: Identify log fold change Tl+ flux associated with the compound `Cc1oc(S(=O)(=O)N2CCOCC2)cc1C(=O)Nc1ccc(F)cc1`
Key: -0.000333 (inactive)

Exercise: Tell me its log fold change Tl+ flux given `CCOC(=O)c1ccc(OC(=O)CCCCCN=C(N)N)cc1` as the entry.
Key: -0.0274 (inactive)

====

# Tested on: R275C/beta1
# assay_method_text: modulators of BK channel variants, profiling panel, selectivity assay, cell-based, U2OS BacMam, thallium flux, beta subunits (AID 1259406);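 note: initial slope of Thallos dye fluorescence rise after thallium is added; log ratio against the mean of 0.3% DMSO vehicle wells on the same plate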
# experimental_setup: at 30 µM
Active and inactive are the calls of the source.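 The calls were made as follows: active = thallium flux through the channel raised or lowered by more than 3 SD from vehicle-only wells, actives on both sides; inactive = the rest.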
// classify into Yes for active, No for inactive

{"compound": "CCOC(=O)c1ccc(NC(=O)CCC(=O)O)cc1", "class": "No"}
{"compound": "O=C(O[C@H]1[C@H](Oc2ccccc2COC(=O)C2(O)C=CCCC2=O)O[C@H](CO)[C@@H](O)[C@@H]1O)c1ccccc1 (stereo partly specified)", "class": "No"}
{"compound": "COc1ccc2c(OC(C)=O)coc2c1", "class": "No"}
{"compound": "COc1ccc(CCNC(=O)c2ccccc2NC(=O)c2ccccc2C)cc1OC", "class": "Yes"}
{"compound": "CC(c1ccccc1)n1c(SCc2cc(=O)oc3cc(O)ccc23)n[nH]c1=O (stereo unspecified)", "class": "No"}
{"compound": "CC(C)(C)NC(=O)[C@@H]1C[C@@H]2CCCC[C@@H]2CN1C[C@@H](O)[C@H](Cc1ccccc1)NC(=O)[C@H](CC(N)=O)NC(=O)c1ccc2ccccc2n1", "class": "Yes"}
{"compound": "O=C1c2c(O)cc(O)cc2O[C@H](c2ccc(O)c(O)c2)[C@@H]1O", "class": "No"}
{"compound": "Cn1ncc2ccccc2c1=O", "class": "No"}

Exercise: Could you check what this test reported for `C#CC1(NC(=O)c2ccc(-c3ccc(CC)cc3)cc2)CCCCC1` ?
Key: No

Exercise: # lookup: test call for `Cc1c(C)c(C)c(C(=O)c2ccccc2C(=O)NN)c(C)c1C`
Key: Yes

Exercise: Lab log entry: `Fc1ccc(CCc2ccc(F)cc2)cc1` — outcome as called in the assay?
Key: No

Exercise: Outcome logged for `O=C1C(c2c(O)[nH]c3ccccc23)=Nc2ccccc21` in this assay:
Key: No

Exercise: Test call, this compound: `CC(=O)NCCCCCCNC(C)=O`
Key: No

Exercise: Kindly provide the recorded test outcome for the following compound: `CCOC(=O)C(C#N)=CNc1ccccc1OC(F)(F)F`
Key: No

Exercise: Which outcome did this test record for the compound `Cc1ccccc1C=C1N=C(c2ccccc2)OC1=O` ?
Key: No

Exercise: Please indicate how the test categorized `Cc1ccc(S(=O)(=O)c2ncsc2SCc2ccc(Cl)cc2Cl)cc1` .
Key: No

====

# assay_method_text: growth inhibition of DIPG glioma cells, dose response, cell-based, JHH-DIPG-1, MIPE4.0, CellTiter-Glo, qHTS (AID 1347062);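 for AC50: cells exposed to compound for two days before readout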
# experimental_setup: JHH-DIPG-1 viability, CellTiter-Glo ATP luminescence
Results filed as inconclusive are left out. Activity calls are given as the source filed them. No cut-off is given here; in the data, nearly all actives have AC50 up to about 27 µM.
Give one outcome, nothing more. List: t (active), f (inactive)

The following compounds have reported results that may help.
{"compound": "CCOc1ccc(Nc2nc(-c3c(C)nc4ccccn34)cs2)cc1", "class": "t"}
{"compound": "C[C@H]1O[C@H](O[C@H]2[C@H](O)[C@@H](O)[C@@H](O[C@H]3[C@H](O)[C@@H](O)C(O)O[C@@H]3CO)O[C@@H]2CO)[C@H](O)[C@@H](O)[C@@H]1N[C@H]1C=C(CO)[C@@H](O)[C@H](O)[C@H]1O (stereo partly specified)", "class": "f"}
{"compound": "COc1cc(C)c(/C=C/C(C)=C/C=C/C(C)=C/C(=O)O)c(C)c1C", "class": "f"}
{"compound": "COc1c(N2C[C@@H]3CCCN[C@@H]3C2)c(F)cc2c(=O)c(C(=O)O)cn(C3CC3)c12", "class": "f"}
{"compound": "N#Cc1c(O)c2c(-c3ccc(-c4ccccc4O)cc3)csc2[nH]c1=O", "class": "f"}
{"compound": "Oc1ccc(-c2nc(-c3ccc(F)cc3)c(-c3ccncc3)[nH]2)cc1", "class": "f"}

Exercise: Please state the recorded outcome for this compound: CS(=O)c1ccc(-c2nc(-c3ccc(F)cc3)c(-c3ccncc3)[nH]2)cc1 (stereo unspecified)
Key: t

Exercise: Hi, do you know how `CC[C@H]1OC(=O)[C@H](C)[C@@H](O[C@H]2C[C@@](C)(OC)[C@@H](O)[C@H](C)O2)[C@H](C)[C@@H](O[C@@H]2O[C@H](C)C[C@H](N(C)C)[C@H]2O)[C@](C)(O)C[C@@H](C)CN(C)[C@H](C)[C@@H](O)[C@]1(C)O` came out in this test?
Key: f

Exercise: Status in this test for `CN(C)CC[C@H](c1ccc(Cl)cc1)c1ccccn1` ?
Key: f

====

# assay_method_text: differential killing of epithelial or mesenchymal cells, primary screen, imaging, PC-3E GFP, TEM4-18 mCherry, co-culture (AID 1345086);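 note: cells exposed to compound for 72 h before imaging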
# experimental_setup: imaging cell counts, measured here: mesenchymal TEM4-18 mCherry cell survival, at 1 µM
// reported normalised cell number per item
The answer should be written as a number, with no unit following it.

Previously resolved entries follow.
{"molecule": "O=C(O)c1cn(C2CC2)c2cc(N3CCN(c4ccc(Cl)cc4Cl)CC3)c(F)cc2c1=O", "normalised cell number": 0.98}
{"molecule": "CC(=O)OCC(=O)[C@H]1CCC2C3CCC4=CC(=O)CC[C@]4(C)C3CC[C@@]21C (some centres undefined)", "normalised cell number": 1.47}

Exercise: Please look at this molecule and report its normalised cell number: `O=C1Cc2cc(O)ccc2O1`
Key: 1.14

Exercise: Determine from records and report normalised cell number for `COc1cc(-c2ccc(N=Nc3ccc4c(S(=O)(=O)O)cc(S(=O)(=O)O)c(N)c4c3O)c(OC)c2)ccc1N=Nc1ccc2c(S(=O)(=O)O)cc(S(=O)(=O)O)c(N)c2c1O`
Key: 1.29
